Molecular target: MyD88^TIR (Homo sapiens, UniProt Q99836)
Construct: MyD88 (residues 148–296); 6xHis; made in house; host or cells: E. coli BL21 (DE3)
Sequence (Q99836 148-296): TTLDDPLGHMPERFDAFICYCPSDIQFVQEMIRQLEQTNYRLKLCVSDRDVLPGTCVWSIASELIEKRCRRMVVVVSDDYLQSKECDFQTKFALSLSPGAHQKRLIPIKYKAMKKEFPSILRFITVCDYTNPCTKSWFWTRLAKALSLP
Assay: T‐Surf phage library (P8 and P3) selection against MyD88^TIR, four rounds, NGS read counts
Format: binding
Conditions: P3 library, selection against MyD88, rank by count before grouping
Reported P3_MyD88 Rank (before) is given for each of the following sequences.
The answer should be a number; do not append a unit.

Examples with their reported P3_MyD88 Rank (before) follow.
Query block: Record request: P3_MyD88 Rank (before) value, item EAFAVHVWSSKANSLVG
Result block: 2193

Query block: Record request: P3_MyD88 Rank (before) value, item SSFHEGLWRMLELSKK
Result block: 3250

Others:
Query block: Record request: P3_MyD88 Rank (before) value, item NQWRNALTAAANLGGL
Result block: 3513
